Molecular target: purified cytoplasmic domain PDGFR-b protein (PDGFRβ) (Homo sapiens (Human), UniProt P09619)
Sequence (P09619 554-1106): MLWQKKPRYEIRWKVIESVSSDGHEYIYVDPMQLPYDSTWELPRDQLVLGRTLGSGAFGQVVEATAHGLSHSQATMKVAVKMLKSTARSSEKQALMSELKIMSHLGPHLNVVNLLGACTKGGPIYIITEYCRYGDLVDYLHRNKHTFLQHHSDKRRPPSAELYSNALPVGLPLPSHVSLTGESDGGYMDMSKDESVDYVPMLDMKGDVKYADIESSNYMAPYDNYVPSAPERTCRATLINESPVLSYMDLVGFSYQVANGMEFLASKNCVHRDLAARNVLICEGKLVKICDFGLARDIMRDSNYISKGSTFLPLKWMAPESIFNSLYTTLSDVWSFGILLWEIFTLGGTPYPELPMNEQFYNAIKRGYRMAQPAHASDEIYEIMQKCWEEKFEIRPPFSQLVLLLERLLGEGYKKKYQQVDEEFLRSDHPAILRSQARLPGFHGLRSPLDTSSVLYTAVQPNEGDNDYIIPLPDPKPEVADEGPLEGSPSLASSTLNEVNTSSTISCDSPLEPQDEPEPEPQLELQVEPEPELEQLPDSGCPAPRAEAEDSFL
pIC50: −log10 of the molar value.
MEASURED_QUANTITY: pIC50

Cc1ccccc1NC(=O)Nc1ccc(-c2cc3ccccc3n2C(N)=O)cc1: 6.93
Cc1ccc(F)c(NC(=O)Nc2cccc(-c3cc4ccccc4n3C(N)=O)c2)c1: 5.52
CCc1cccc(NC(=O)Nc2csc(-c3cc4ccccc4n3C(N)=O)c2)c1: 6.58
Cc1ccc(NC(=O)Nc2ccc(-c3cc4ccccc4n3C(N)=O)cc2)cc1: 7.96
NC(=O)n1c(-c2ccc(NC(=O)Nc3ccc(F)c(Cl)c3)cc2)cc2ccccc21: 7.72
Cc1ccc(F)c(NC(=O)Nc2csc(-c3cc4ccccc4n3C(N)=O)c2)c1: 5.34
Cc1cccc(NC(=O)Nc2csc(-c3cc4ccccc4n3C(N)=O)c2)c1: 5.94
NC(=O)n1c(-c2cccc(NC(=O)Nc3cccc(C(F)(F)F)c3)c2)cc2ccccc21: 5.48
COc1cccc(NC(=O)Nc2ccc(-c3cc4ccccc4n3C(N)=O)cc2)c1: 7.92
Cc1cccc(NC(=O)Nc2ccc(-c3cc4ccccc4n3C(N)=O)cc2)c1: 7.85
Cc1ccc(F)c(NC(=O)Nc2ccc(-c3cc4ccccc4n3C(N)=O)cc2)c1: 7.70

---

IC50, purified cytoplasmic domain KDR protein (VEGFR2) (Homo sapiens (Human)), per-entry values.
MEASURED_QUANTITY: IC50 (nM)

COC(=O)c1ccc2cc(-c3ccc(NC(=O)Nc4cccc(C)c4)cc3)n(C(N)=O)c2c1: 5
Cc1ccc(F)c(NC(=O)Nc2ccc(-c3cc4ccccc4n3C(N)=O)cc2)c1: 9
Cc1cccc(NC(=O)Nc2cccc(-c3cc4ccccc4n3C(N)=O)c2)c1: 276
COc1cccc(NC(=O)Nc2ccc(-c3cc4ccccc4n3C(N)=O)cc2)c1: 11
NC(=O)n1c(-c2ccc(NC(=O)Nc3ccccc3)cc2)cc2ccccc21: 22
NC(=O)n1c(-c2cc(NC(=O)Nc3ccc(F)c(Cl)c3)cs2)cc2ccccc21: 83
NC(=O)n1c(-c2ccc(NC(=O)Nc3cccc(C(F)(F)F)c3)cc2)cc2ccccc21: 9
Cc1cccc(NC(=O)Nc2ccc(-c3cc4ccccc4n3C(N)=O)cc2)c1: 6
